Numbers sourced from patent US5008267A.

System: ventricular muscle refractory period
Assay: Influence on ventricular muscle refractory period (ERP)
Assay type: in vivo, mongrel dog
Test Context: Canis lupus familiaris, iv; 0.1 mg/kg, i.v.; (W-Y)/Y×100; read-out: ERP (%; extensibility of refractory period)
Structures can show the parent of a compound that is named as a salt.
Property Name: change in vivo at 0.1 mg/kg (%)

INSERT INTO measurements (compound, numeric_readout) VALUES
  ('Cn1c(N2CCN(CCCOc3ccc(Cl)cc3[N+](=O)[O-])CC2)cc(=O)n(C)c1=O [Compound 140, hydrochloride]', 0),
  ('Cn1c(N2CCN(CCCOc3ccccc3[N+](=O)[O-])CC2)cc(=O)n(C)c1=O [Compound 55, hydrochloride]', 0),
  ('Cn1c(N2CCN(CCCOc3ccc([N+](=O)[O-])cc3C(=O)c3ccccc3Cl)CC2)cc(=O)n(C)c1=O', 0),
  ('Cn1c(N2CCN(CCc3ccc(C(=O)c4ccccc4)cc3[N+](=O)[O-])CC2)cc(=O)n(C)c1=O [Compound 137, oxalate]', 6.3);
